# System: MARK1;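 note: KINOMEscan scanMAX binding as percent activity remaining versus control; lower means stronger binding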
# Condition Description: Compound Concentration (nM):1000
Outcome label depends on Percent Control relative to 80%: at/above gives criterion met, below gives criterion not met.

Compound	Classification
Cl.O=S1CCN(Cc2ccc(-c3ccc4ncnc(Nc5ccc(OCc6ccccc6)c(F)c5)c4c3)o2)CC1 [GW576924A]	criterion met

Decide: is the reported value of Percent Control for Cl.O=C(Nc1ccc(Oc2ccc3[nH]c(NC(=O)c4ccco4)nc3c2)cc1)Nc1cc(C(F)(F)F)ccc1F [GW683134A] equal to or greater than 80%? criterion met

Decide: is the reported value of Percent Control for CN(C)CCNC(=O)Nc1ccc(N(C)c2ccnc(Nc3ccc(CS(C)(=O)=O)cc3)n2)cc1.Cl [GW830900A] equal to or greater than 80%? criterion met

Decide: is the reported value of Percent Control for COc1cc2ncn(-c3cc(O[C@H](C)c4ccccc4Cl)c(C(N)=O)s3)c2cc1OC [GSK237701A] equal to or greater than 80%? criterion not met

Decide: is the reported value of Percent Control for Cl.O=C(O[C@H]1CN[C@H](C#Cc2cc3ncnc(Nc4ccc5c(cnn5Cc5ccccc5)c4)c3s2)C1)N1CCOCC1 [GSK200398A] equal to or greater than 80%? criterion met
